# TARGET_OR_TEST_SYSTEM: T1, BCMA on cells (293T cells transfected with BCMA; H929, MM.1S and U266 cell lines expressing BCMA) (human, UniProt Q02223 1-184)
# T1 construct: H929, MM.1S and U266 carry the native protein; also called B-cell Maturation Antigen; TNFRSF17
# T1 sequence: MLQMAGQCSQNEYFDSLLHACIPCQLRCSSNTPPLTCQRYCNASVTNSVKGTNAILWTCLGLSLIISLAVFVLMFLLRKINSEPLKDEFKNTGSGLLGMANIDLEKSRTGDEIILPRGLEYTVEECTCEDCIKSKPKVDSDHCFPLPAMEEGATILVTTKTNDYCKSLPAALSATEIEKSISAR
# METHOD: flow cytometry, H929 cells; further: test concentration or dose not given here
Quick rule: Mean fluorescent intensity of at least 1000 means y, below that means n.

Would you please look over these solved cases?
binder="SCT-Aa10(m/m) (antibody, V domains shown, Full IgG format: mouse IgG1 heavy chain constant region, mouse kappa light chain constant region) VH: QVQLQQSDAELVKPGASVKISCKVSGYTFTDHTIHWMKQRPEQGLEWIGYIFPRDGNTKYNEKFKGKATMTADKSSSTAYMQLNSLTSEDSAVYFCARWDYEGFDCWGQGTTLTVSS VL: DIVMTQSPATLSVTPGDRVSLSCRASQSISDYLHWYQQKSHESPRLLIKYASQSISGIPSRFSGSGSGSDFTLSINSVEPEDVGVYFCQNGHSFPPTFGSGTKLEIK" assigned_label=y
binder="SCT-Aa11(h/h) (antibody, V domains shown, Full IgG format, chimeric: human IgG1 heavy chain constant region, human kappa light chain constant region) VH: QVQLQQSDAELVKPGASVKISCKVSGYTFTDHTIHWMKQRPEQGLEWIGYIFPRDGTTKFNEMFKGKATLTADKSSSTAYMELNSLTSEDSAVYFCARWDYEGFDYWGQGTTLTVSS VL: DIVMTQSPATLSVTPGDRVSLSCRASQSISDYLHWYQQKSHESPRLLIKYASQFISGIPSRFRGSGSGSDFTLSINSVEPEDVGVYYCQNGHSFPPTFGSGTKLEIK" assigned_label=n
binder="SCT-Aa12(m/m) (antibody, V domains shown, Full IgG format: mouse IgG1 heavy chain constant region, mouse kappa light chain constant region) VH: QVQLQQSDAELVKPGASVKISCKVSGYTFTDYTIHWMKQRPEQGLEWIGYIFPSDGSTKYNEKFKGKATLTADKSSSTAYMQLNSLTSDDSAVYFCARWDYEGFDYWGQGTTLTVSS VL: DIVMTQSPATLSVTPGDRVSLSCRASQSISDYLNWYQQKSHESPRLLIKYASQSISGIPSRFSGSGSGSDFTLSINSVEPEDVGVYYCQNGHSFPPTFGSGTKLEIK" assigned_label=y
binder="SCT-Aa03(h/h) (antibody, V domains shown, Full IgG format, chimeric: human IgG1 heavy chain constant region, human kappa light chain constant region) VH: EVKLLQSGGGLVQPGGSLKLSCAASGIDFSRYWMSWVRRAPGKGLEWIGEINPDSSTINYAPSLKDKFIISRDNAKNTLYLQMSKVRSEDTALYYCASFYYDYDHAMDYWGQGTSVTVSS VL: DIVMTQSQKFMSTSVGDRFSVTCKASQNVGTNVAWYQQKPGQSPKALIYSASYRFSGVPDRFTGSGSGTDFTLTISNVQSEDLAEYFCQQYNSYPFTFGSGTKLEIK" assigned_label=y

Assess whether reported Mean fluorescent intensity for SCT-Aa19(h/h) (antibody, V domains shown, Full IgG format, chimeric: human IgG1 heavy chain constant region, human kappa light chain constant region) VH: QVQLQQSGPELVKPGASVRISCKASGCTFTDYYIHWVKQRPGQGLEWIGWIYPGNLNSKFNEKFRDKATLTADNSSSTAYMQLSSLTSEDSAVYFCARYNYEGYFDYWGQGTTLTVSS VL: DIVMTQSPATLSVTPGDRVSLSCRASQSIADSLHWYQQKSHESPRLLIKYASHSISGIPSRFRGSGSGSDFTLSINSVEPEDVGVYYCQNGHSFPLTFGAGTKLELK sits at 1000 or higher.
n

Every entry's value here was drawn from patent US20210332145A1.
